Cited source for all entries: patent US20240018119A1

Listed below: Triple reuptake inhibition (Ratio %) NET values for each entry.
TARGET: norepinephrine transporter (Homo sapiens, UniProt P23975)
Construct: expressed in transfected cells; host or cells: HEK-293
Sequence (P23975 whole entry, species assumed): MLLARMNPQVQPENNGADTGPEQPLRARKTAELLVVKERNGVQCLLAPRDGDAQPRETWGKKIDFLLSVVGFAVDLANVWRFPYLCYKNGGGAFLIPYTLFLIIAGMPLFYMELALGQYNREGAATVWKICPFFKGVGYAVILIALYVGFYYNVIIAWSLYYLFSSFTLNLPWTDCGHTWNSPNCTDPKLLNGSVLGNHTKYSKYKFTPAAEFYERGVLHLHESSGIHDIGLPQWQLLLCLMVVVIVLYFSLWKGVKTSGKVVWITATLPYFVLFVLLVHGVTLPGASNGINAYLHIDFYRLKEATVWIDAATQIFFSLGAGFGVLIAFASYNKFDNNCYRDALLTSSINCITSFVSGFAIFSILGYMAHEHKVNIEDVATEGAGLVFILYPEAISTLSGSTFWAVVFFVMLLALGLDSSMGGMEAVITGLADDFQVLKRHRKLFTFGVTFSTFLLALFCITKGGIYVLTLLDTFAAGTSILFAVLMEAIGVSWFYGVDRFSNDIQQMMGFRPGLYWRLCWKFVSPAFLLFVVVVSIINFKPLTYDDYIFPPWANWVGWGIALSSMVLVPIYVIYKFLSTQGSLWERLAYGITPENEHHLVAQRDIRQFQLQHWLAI
ASSAY_SUMMARY: Norepinephrine reuptake inhibition in transporter-transfected HEK-293 cells ([3H]-NE)
Type: cell-based
ASSAY_CONTEXT: compound 1 μM; [3H]-NE; relative to control without compound (100%), lower = more inhibition
Please state the figure in %; there is no need to write the unit.

// below: answered molecules
O=C(NCCN1CCC(Cc2ccccc2)CC1)c1cc2cc(C(F)(F)F)ccc2[nH]1	59.50
CC(C)(CN1CCC(Cc2ccccc2)CC1)NC(=O)c1cc2ccccc2[nH]1	70.66
O=C(NCC(=O)N1CCC(Cc2ccccc2)CC1)c1cc2ccccc2[nH]1	93.21
O=C(NCCN1CCN(Cc2ccc(F)c(F)c2)CC1)c1ccc(Cl)c(Cl)c1	82.44

Look up and report measured Triple reuptake inhibition (Ratio %) NET (norepinephrine transporter (Homo sapiens, UniProt P23975)) for the following molecule: "O=C(NCCN1CCN(c2ccc(Cl)c(Cl)c2)CC1)c1ccc2cc(Br)ccc2c1"
110.56

Look up and report measured Triple reuptake inhibition (Ratio %) NET (norepinephrine transporter (Homo sapiens, UniProt P23975)) for the following molecule: "COc1ccc2[nH]c(C(=O)NCCN3CCC(Cc4ccccc4)CC3)nc2c1"
43.43

====

TARGET: dopamine transporter (Homo sapiens, UniProt Q01959)
Construct: expressed in transfected cells; host or cells: HEK-293
Sequence (Q01959 whole entry): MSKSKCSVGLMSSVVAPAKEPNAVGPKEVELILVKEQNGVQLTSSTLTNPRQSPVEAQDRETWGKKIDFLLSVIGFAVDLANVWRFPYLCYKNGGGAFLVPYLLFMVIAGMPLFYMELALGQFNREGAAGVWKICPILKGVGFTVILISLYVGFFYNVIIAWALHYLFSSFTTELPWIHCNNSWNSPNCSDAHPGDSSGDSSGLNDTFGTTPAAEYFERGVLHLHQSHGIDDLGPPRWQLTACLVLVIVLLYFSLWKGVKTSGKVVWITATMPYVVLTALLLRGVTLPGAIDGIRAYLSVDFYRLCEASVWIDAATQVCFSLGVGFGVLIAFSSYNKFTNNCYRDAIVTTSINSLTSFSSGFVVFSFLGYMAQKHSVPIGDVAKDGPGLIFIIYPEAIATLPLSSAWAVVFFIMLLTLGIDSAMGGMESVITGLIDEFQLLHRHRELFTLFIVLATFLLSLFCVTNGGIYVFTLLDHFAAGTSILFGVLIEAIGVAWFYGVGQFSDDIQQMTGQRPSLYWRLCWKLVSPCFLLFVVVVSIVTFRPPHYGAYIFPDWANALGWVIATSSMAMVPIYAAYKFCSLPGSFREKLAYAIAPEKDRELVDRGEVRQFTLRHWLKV
ASSAY_SUMMARY: Dopamine reuptake inhibition in transporter-transfected HEK-293 cells ([3H]-DA)
Assay type: cell-based
ASSAY_CONTEXT: compound 1 μM; 20-30 nM [3H]-DA; relative to control without compound (100%), lower = more inhibition
Answer Not fulfilled if Triple reuptake inhibition (Ratio %) DAT is under 40%, and Fulfilled if it is 40% or more.

Past entries and their recorded results:
O=C(NCCN1CCC(Cc2ccccc2)CC1)c1cc2cc(O)c(O)cc2[nH]1	Not fulfilled
O=C(NCCN1CCC(Cc2ccc(Cl)c(Cl)c2)CC1)c1cc2cc(F)ccc2[nH]1	Fulfilled
O=C(NCCN1CCN(c2cccc(Cl)c2Cl)CC1)c1ccc2cc(Br)ccc2c1	Fulfilled

Now let's try a different one.
Is reported Triple reuptake inhibition (Ratio %) DAT greater than or equal to 40% here: "O=C(NCCN1CCC(Cc2ccccc2)CC1)c1cc2cc(C(F)(F)F)ccc2[nH]1"
Not fulfilled

====

TARGET: serotonin transporter (Homo sapiens, UniProt P31645)
Construct: expressed in transfected cells; host or cells: HEK-293
Sequence (P31645 whole entry): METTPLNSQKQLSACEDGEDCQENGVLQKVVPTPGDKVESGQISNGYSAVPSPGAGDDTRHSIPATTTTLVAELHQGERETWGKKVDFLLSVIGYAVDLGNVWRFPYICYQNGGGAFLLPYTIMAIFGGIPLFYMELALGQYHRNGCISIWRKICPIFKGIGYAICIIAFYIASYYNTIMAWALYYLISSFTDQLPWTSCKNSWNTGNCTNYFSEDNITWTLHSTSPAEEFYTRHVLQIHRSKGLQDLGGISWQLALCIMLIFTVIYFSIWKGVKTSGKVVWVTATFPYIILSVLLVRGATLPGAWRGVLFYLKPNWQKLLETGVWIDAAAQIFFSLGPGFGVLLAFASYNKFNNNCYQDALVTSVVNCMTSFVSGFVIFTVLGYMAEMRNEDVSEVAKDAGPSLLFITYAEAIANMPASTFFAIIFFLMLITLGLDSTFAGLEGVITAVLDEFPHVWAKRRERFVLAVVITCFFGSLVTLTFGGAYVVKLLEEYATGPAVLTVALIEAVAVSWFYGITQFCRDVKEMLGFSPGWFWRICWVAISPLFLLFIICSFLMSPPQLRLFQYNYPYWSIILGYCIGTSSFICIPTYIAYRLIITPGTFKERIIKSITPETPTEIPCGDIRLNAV
ASSAY_SUMMARY: Serotonin reuptake inhibition in transporter-transfected HEK-293 cells ([3H]-5-HT)
Assay type: cell-based
ASSAY_CONTEXT: compound 1 μM; [3H]-5-HT; relative to control without compound (100%), lower = more inhibition
MEASUREMENT_LABEL: Triple reuptake inhibition (Ratio %) SERT
Please state the figure in %; there is no need to write the unit.

O=C(NCCN1CCN(Cc2ccc(F)c(F)c2)CC1)c1ccc(Cl)c(Cl)c1 [Example 16]	113.34
O=C(NCCN1CCC(Cc2ccccc2)CC1)c1cc2cc(F)ccc2[nH]1 [Example 49]	62.50
O=C(NCCN1CCC(Cc2ccc(Cl)c(Cl)c2)CC1)c1ccc(Cl)c(Cl)c1 [Example 17]	4.81
O=C(NCCN1CCC(Cc2ccccc2)CC1)c1cc2cc(F)c(F)cc2[nH]1 [Example 32]	54.81

Alright, here's another compound for you.
Look up and report measured Triple reuptake inhibition (Ratio %) SERT (serotonin transporter (Homo sapiens, UniProt P31645)) for the following compound: O=C(NCCN1CCC(Cc2ccccc2)CC1)c1cc2cc(OCc3ccccc3)ccc2[nH]1 [Example 46]
42.91

====

TARGET: norepinephrine transporter (Homo sapiens, UniProt P23975)
Construct: expressed in transfected cells; host or cells: HEK-293
ASSAY_SUMMARY: Norepinephrine reuptake inhibition in transporter-transfected HEK-293 cells ([3H]-NE)
Type: cell-based
ASSAY_CONTEXT: compound 1 μM; [3H]-NE; relative to control without compound (100%), lower = more inhibition
Answer No if Triple reuptake inhibition (Ratio %) NET is under 80%, and Yes if it is 80% or more.

O=C(NCCN1CCC(Cc2ccccc2)CC1)c1cc2cc(F)c(F)cc2[nH]1	No

Is reported Triple reuptake inhibition (Ratio %) NET greater than or equal to 80% here: "O=C(NCCN1CCC(Cc2ccccc2)CC1)c1ccc[nH]1"
No

Is reported Triple reuptake inhibition (Ratio %) NET greater than or equal to 80% here: "O=C(NCCN1CCC(Cc2ccc(F)c(F)c2)CC1)c1cc2ccccc2[nH]1"
No

Is reported Triple reuptake inhibition (Ratio %) NET greater than or equal to 80% here: "O=C(NCCN1CCC(c2c[nH]c3ccccc23)CC1)c1cc2ccccc2[nH]1"
No

====

TARGET: dopamine transporter (Homo sapiens)
Construct: expressed in transfected cells; host or cells: HEK-293
ASSAY_SUMMARY: Dopamine reuptake inhibition in transporter-transfected HEK-293 cells ([3H]-DA)
Type: cell-based
ASSAY_CONTEXT: compound 1 μM; 20-30 nM [3H]-DA; relative to control without compound (100%), lower = more inhibition
Procedure: To evaluate the reuptake inhibitory effect on dopamine, the dopamine transporter cDNA was transfected using the HEK-293 cell line, and then sub-seeded in a 24 well plate the next day. […] After dissolving the resultant in 1% SDS (0.5 ml), the degree of binding of radioisotope-labeled dopamine to the transporter was measured. […]
Listed below: Triple reuptake inhibition (Ratio %) DAT values for each entry.
Please state the figure in %; there is no need to write the unit.

// below: answered molecules
NC(=O)c1ccc2[nH]c(C(=O)NCCN3CCC(Cc4ccccc4)CC3)cc2c1 [Example 82]	47.70
O=C(NCCn1ccc(-c2ccc(F)cn2)n1)c1ccc2cc(Br)ccc2c1 [Example 8]	97.06
O=C(NCCN1CCCC(Cc2ccccc2)C1)c1cc2ccccc2[nH]1 (centres unmarked) [Example 38]	43.94
O=C(NCCN1CCC(Cc2ccccc2)CC1)c1cc2cc(OCc3ccccc3)ccc2[nH]1 [Example 46]	77.49

For the molecule O=C(NCCN1CCN(Cc2ccccc2)CC1)c1cc2ccccc2[nH]1 [Example 25] , give its measured Triple reuptake inhibition (Ratio %) DAT value.
76.50

====

TARGET: dopamine transporter (Homo sapiens, UniProt Q01959)
Construct: expressed in transfected cells; host or cells: HEK-293
ASSAY_SUMMARY: Dopamine reuptake inhibition in transporter-transfected HEK-293 cells ([3H]-DA)
Format: cell-based
ASSAY_CONTEXT: compound 1 μM; 20-30 nM [3H]-DA; relative to control without compound (100%), lower = more inhibition
// map Triple reuptake inhibition (Ratio %) DAT to label using label 0 (below 40%), label 1 (40% to below 80%), label 2 (80% or more)

Past entries and their recorded results:
O=C(NCCN1CCC(Cc2ccccc2)CC1)c1cc2cc(Cl)ccc2[nH]1	label 0
O=C(NCCN1CCN(c2ccc(Cl)c(Cl)c2)CC1)c1ccc(Cl)c(Cl)c1	label 2

Bin? "O=C(CCC(=O)N1CCC(Cc2ccccc2)CC1)Nc1cc2ccccc2[nH]1"
label 2

Bin? "CCCCOc1ccc(C(=O)NCCN2CCC(c3c[nH]c4ccccc34)CC2)cc1"
label 1

Bin? "O=C(NCCN1CCC(Cc2ccccc2)CC1)c1ccc[nH]1"
label 2

Bin? "O=C(NCCN1CCC(Cc2ccccc2)CC1)c1nc2cc(O)ccc2[nH]1"
label 0

====

TARGET: dopamine transporter (Homo sapiens, UniProt Q01959)
Construct: expressed in transfected cells; host or cells: HEK-293
ASSAY_SUMMARY: Dopamine reuptake inhibition in transporter-transfected HEK-293 cells ([3H]-DA)
Type: cell-based
ASSAY_CONTEXT: concentration at which Ratio % is 50%; 6 concentrations 1 nM to 1 μM; read-out: Triple reuptake inhibition (IC50, μM) DAT
Listed below: log10 IC50 values for each entry.
Hi team, quick reminder: these entries are log10 of IC50 (µM).

// below: answered compounds
O=C(NCCN1CCC(Cc2ccccc2)CC1)c1cc2cc(Br)ccc2[nH]1	-0.01
O=C(NCCN1CCC(Cc2ccccc2)CC1)c1cc2cc(Cl)ccc2[nH]1	0.24
Cc1c(C(=O)NCCN2CCC(Cc3ccccc3)CC2)[nH]c2ccccc12	0.14

Look up and report measured log10 IC50 (dopamine transporter (Homo sapiens, UniProt Q01959)) for the following compound: "O=C(NCCN1CCC(Cc2ccc(Cl)c(Cl)c2)CC1)c1cc2ccccc2[nH]1"
-0.23

Look up and report measured log10 IC50 (dopamine transporter (Homo sapiens, UniProt Q01959)) for the following compound: "COc1cc2cc(C(=O)NCCN3CCC(Cc4ccc(Cl)c(Cl)c4)CC3)[nH]c2cc1OC"
-1.55

Look up and report measured log10 IC50 (dopamine transporter (Homo sapiens, UniProt Q01959)) for the following compound: "COc1cc2cc(C(=O)NCCN3CCC(Cc4ccccc4)CC3)[nH]c2cc1OC"
-0.61

Look up and report measured log10 IC50 (dopamine transporter (Homo sapiens, UniProt Q01959)) for the following compound: "O=C(NCCN1CCC(Cc2ccc(Cl)c(Cl)c2)CC1)c1cc2cc(F)ccc2[nH]1"
-0.20

Look up and report measured log10 IC50 (dopamine transporter (Homo sapiens, UniProt Q01959)) for the following compound: "O=C(NCCN1CCC(Cc2ccccc2)CC1)c1cc2cc(O)c(O)cc2[nH]1"
-1.06

Look up and report measured log10 IC50 (dopamine transporter (Homo sapiens, UniProt Q01959)) for the following compound: "CCCCOc1ccc2cc(C(=O)NCCN3CCC(Cc4ccccc4)CC3)[nH]c2c1"
-0.47

Look up and report measured log10 IC50 (dopamine transporter (Homo sapiens, UniProt Q01959)) for the following compound: "O=C(NCCN1CCC(c2ccc(Cl)c(Cl)c2)CC1)c1cc2ccccc2[nH]1"
-0.65

Look up and report measured log10 IC50 (dopamine transporter (Homo sapiens, UniProt Q01959)) for the following compound: O=C(NCCN1CCC(Cc2ccccc2)CC1)c1cc2ccccc2[nH]1 [Comparative Example 1, reference compound]
0.62

Look up and report measured log10 IC50 (dopamine transporter (Homo sapiens, UniProt Q01959)) for the following compound: "O=C(NCCN1CCC(Cc2ccc(F)c(F)c2)CC1)c1ccc2cc(Br)ccc2c1"
0.59

Look up and report measured log10 IC50 (dopamine transporter (Homo sapiens, UniProt Q01959)) for the following compound: "COc1ccc2[nH]c(C(=O)NCCN3CCC(Cc4ccccc4)CC3)nc2c1"
-0.70

Look up and report measured log10 IC50 (dopamine transporter (Homo sapiens, UniProt Q01959)) for the following compound: "O=C(NCCN1CCC(Cc2ccccc2)CC1)c1nc2ccccc2[nH]1"
-0.01

Look up and report measured log10 IC50 (dopamine transporter (Homo sapiens, UniProt Q01959)) for the following compound: "O=C(NCCN1CCC(Cc2ccccc2)CC1)c1cc2cc(F)c(F)cc2[nH]1"
-0.08

Look up and report measured log10 IC50 (dopamine transporter (Homo sapiens, UniProt Q01959)) for the following compound: "O=C(NCCN1CCC(Cc2ccc(Cl)c(Cl)c2)CC1)c1cc2cc(O)c(O)cc2[nH]1"
-1.31

Look up and report measured log10 IC50 (dopamine transporter (Homo sapiens, UniProt Q01959)) for the following compound: "O=C(NCCN1CCC(Cc2ccc(Cl)c(Cl)c2)CC1)c1ccc2cc(Br)ccc2c1"
0.46
